# condition_set: 318.15 K
Numbers after ± are expanded uncertainties.
compounds and their reported surface tension liquid-gas

May I ask what surface tension liquid-gas has been recorded for "CCCCCCC" ?
17.6 ± 0.57 mN/m

May I ask what surface tension liquid-gas has been recorded for "OCc1ccccc1" ?
36.63 ± 1 mN/m

May I ask what surface tension liquid-gas has been recorded for "CCCCCCCCC" ?
20.47 ± 0.64 mN/m

May I ask what surface tension liquid-gas has been recorded for "C1CCCCC1" ?
22.05 ± 0.68 mN/m

----------
# condition_set: 313.15 K
property_name: surface tension liquid-gas (mN/m)
Give the quantity in mN/m, number only.

Below, each entry is followed by its recorded surface tension liquid-gas result.
> print(dat)
                       compound  endpoint.unit  data.value
1            CCCCCCCCC [nonane]           mN/m       20.94
2             CCCCCCC [heptane]           mN/m       18.08
3  OCc1ccccc1 [benzenemethanol]           mN/m       37.16

May I ask what surface tension liquid-gas has been recorded for CCCCCC [hexane] ?
16.38

May I ask what surface tension liquid-gas has been recorded for C1CCCCC1 [cyclohexane] ?
22.71

----------
# condition_set: 323.15 K
molecules and their reported surface tension liquid-gas
Give the quantity in mN/m, number only.

Below, each entry is followed by its recorded surface tension liquid-gas result.
> print(dat)
     compound  data.value
1    C1CCCCC1       21.45
2     CCCCCCC       17.06
3  OCc1ccccc1       36.18

Now look at this entry.
May I ask what surface tension liquid-gas has been recorded for "CCCCCCCCC" ?
19.98

----------
molecules and their reported mass density
# condition_set: 298.15 K; 101.33 kPa; Liquid
Give the quantity in kg/m3, number only.

Below, each entry is followed by its recorded mass density result.
> print(dat)
     compound  endpoint.unit  data.value
1     CCCCCCC          kg/m3       691.9
2   CCCCCCCCC          kg/m3       713.9
3  OCc1ccccc1          kg/m3      1041.4
4    C1CCCCC1          kg/m3       773.9

Now look at this entry.
May I ask what mass density has been recorded for "CCCCCC" ?
655.4
